Please provide measured λmax, nm for the entries that follow.
target: NANOLUC® Luciferase (Oplophorus gracilirostris, UniProt Q9GV45, A31E/A60N/A81I/F95D/I117V/K70R/L54V/L99Q/M102K/N193R/P142E/Q151K/Q38R/Q45L/V71I/Y165I); test: Luminescence assay with purified NANOLUC luciferase (Example 7); format: biochemical; conditions: bioluminescence with NANOLUC luciferase
Sequence (Q9GV45 28-196 with tags or gaps with the stated changes limits assumed): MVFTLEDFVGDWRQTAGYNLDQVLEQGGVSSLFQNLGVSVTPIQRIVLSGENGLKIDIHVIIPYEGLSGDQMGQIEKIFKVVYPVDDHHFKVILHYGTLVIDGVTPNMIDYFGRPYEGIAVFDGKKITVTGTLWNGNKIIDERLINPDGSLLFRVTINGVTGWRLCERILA
One number for each entry, in nm.

Solved cases (5 shown):
record-smiles | parameter | reported
O=c1c(Cc2ccco2)nc2c(-c3cccnc3Cl)[nH]c(-c3ccccc3)cn1-2 | λmax, nm | 499
Nc1cccc(-c2cn3c(=O)c(Cc4ccco4)nc-3c(Cc3ccccc3)[nH]2)c1 | λmax, nm | 487
CN(C)c1ccc(-c2[nH]c(-c3ccccc3)cn3c(=O)c(Cc4ccco4)nc2-3)cc1 | λmax, nm | 502
O=c1c(Cc2ccco2)nc2c(-c3ccnc(Cl)c3)[nH]c3c(n1-2)CCc1ccccc1-3 | λmax, nm | 538
N#Cc1c(-c2ccccc2)[nH]c(-c2ccnc(F)c2)c2nc(Cc3ccco3)c(=O)n1-2 | λmax, nm | 529

Provide λmax, nm values for the following items, in order.
1. O=c1c(Cc2ccco2)nc2c(-c3cccnc3)[nH]c(-c3ccccc3)cn1-2
2. Cn1c(C#N)ccc1-c1[nH]c(-c2ccccc2)cn2c(=O)c(Cc3ccco3)nc1-2
3. O=c1c(Cc2ccco2)nc2c(-c3cccnc3F)[nH]c(-c3ccccc3)cn1-2

stdout:
1: 517; 2: 505; 3: 508

Provide λmax, nm values for the following items, in order.
1. O=c1c(Cc2ccco2)nc2c(-c3ccco3)[nH]c(-c3ccco3)cn1-2
2. O=c1c(Cc2ccco2)nc2c(-c3ccnc(Br)c3)[nH]c(-c3ccccc3)cn1-2
3. O=c1c(Cc2ccco2)nc2c(-c3ccsc3)[nH]c(-c3ccccc3)cn1-2
4. O=c1c(Cc2ccco2)nc2c(-c3cccc4ccccc34)[nH]c(-c3ccccc3)cn1-2
5. N#Cc1ccc(-c2[nH]c(-c3ccccc3)cn3c(=O)c(Cc4ccco4)nc2-3)cc1
6. N#Cc1cccc(-c2[nH]c(-c3ccccc3)cn3c(=O)c(Cc4ccco4)nc2-3)c1
7. O=c1c(Cc2ccco2)nc2c(C#Cc3ccccc3)[nH]c(-c3ccccc3)cn1-2
8. O=c1c(Cc2ccco2)nc2c(-c3ccncc3)[nH]c(-c3ccccc3)cn1-2

stdout:
1: 514; 2: 538; 3: 496; 4: 517; 5: 559; 6: 514; 7: 517; 8: 523

stdin: For Cn1cc(-c2[nH]c(-c3ccccc3)cn3c(=O)c(Cc4ccco4)nc2-3)ccc1=O , what is its reported λmax, nm?
stdout: 496

====

target: NANOLUC® Luciferase (Oplophorus gracilirostris, UniProt Q9GV45, A31E/A60N/A81I/F95D/I117V/K70R/L54V/L99Q/M102K/N193R/P142E/Q151K/Q38R/Q45L/V71I/Y165I); assay: Spectral measurements in various buffers with NANOLUC luciferase (Example 10); type: biochemical; details: emission spectrum; NanoLuc; OptiMEM + 0.1% FBS
Please provide measured Peak for the entries that follow.

Solved cases (3 shown):
record-smiles | reported
N#Cc1ccc(-c2[nH]c(-c3ccc(O)cc3)cn3c(=O)c(Cc4ccco4)nc2-3)s1 | 583
Oc1ccc(-c2cn3c(O)c(Cc4ccccc4)nc3c(Cc3ccccc3)n2)cc1 | 460
O=c1c(Cc2ccco2)nc2c(Cc3ccccc3)[nH]c(-c3ccccc3)cn1-2 | 463

Provide Peak values for the following items, in order.
1. O=c1c(Cc2ccco2)nc2c(-c3ccnc4ccccc34)[nH]c(-c3ccccc3)cn1-2
2. O=c1c(Cc2ccco2)nc2c(-c3ccnc4ccccc34)[nH]c(-c3ccc(O)cc3)cn1-2
3. N#Cc1ccc(-c2[nH]c(-c3ccccc3)cn3c(=O)c(Cc4ccco4)nc2-3)s1
4. O=c1c(Cc2ccco2)nc2c(-c3ccccc3)[nH]c(-c3ccccc3)cn1-2

stdout:
[571, 583, 574, 490]
